- target: DRB1*0101 (DR1) (Homo sapiens, UniProt P01903+P01911, A100R/D57E/F55L/F60I/F76Y/I96L/L162R/M171V/P40L/Q125E/R42F/V115G/Y59C)
- Assay type: binding
Define the label as satisfied when Relative binding affinity of peptide to HLA-DR molecules, DR1 is strictly less than 100 and as not satisfied in all remaining cases.

KELLNRIQVDSSNPLSEKEK | not satisfied
DTGGLIDSPSINLDVRKQYK | not satisfied
IGLEIKDVQIIKQSEKEYIRIDAKVVP | satisfied
SEGFIHEFGHAVDDYAGYLL | satisfied
EQYTHQDEIYEQVHSKGLYV | satisfied
AKAFAYYIEPQHRDVLQLYA | not satisfied

====

Attribute: Relative binding affinity of peptide to HLA-DR molecules, DR1
- target: DRB1*0101 (DR1) (Homo sapiens, UniProt P01903+P01911, A100R/D57E/F55L/F60I/F76Y/I96L/L162R/M171V/P40L/Q125E/R42F/V115G/Y59C)
- Format: binding
observable: Relative binding affinity of peptide to HLA-DR molecules, DR1

EAQLNINQEWNKALGLPKYT | 104
RNKTQEEHLKEIMKHIVKIE | 4810
QHRDVLQLYAPEAFNYMDKF | 146
EYIRIDAKVVPKSKIDTKIQ | 3
YYEIGKILSRDILSKINQPY | 69
QSDLIKKVTNYLVDGNGRFV | 12
KLITFNVHNRYASNIVESAY | 35

====

- target: DRB1*0701 (DR7) (Homo sapiens, UniProt P01903+P01911, A100R/A102G/A103Q/D57E/D86V/E43K/F76Y/K127E/L162R/M171V/P40G/Q125H/Q99D/R33Q/R42Y/R54Q/S133A/S66F/T210M/V115G/Y107V/Y59L/Y89S)
- Type: binding
observable: Relative binding affinity of peptide to HLA-DR molecules, DR7

SDVLEMYKAIGGKIYIVDGD | 1
QSDLIKKVTNYLVDGNGRFV | 4
DTGGLIDSPSINLDVRKQYK | 15
SKKFIDIFKEEGSNLTSYGR | 302
AKAFAYYIEPQHRDVLQLYA | 97
YYEIGKILSRDILSKINQPY | 4
EIMKHIVKIEVKGEEAVKKE | 249
VENTEKALNVYYEIGKILSR | 36
LLFTNQLKEHPTDFSVEFLE | 51
RNKTQEEHLKEIMKHIVKIE | 77
NKALGLPKYTKLITFNVHNR | 4
LENGKLILQRNIGLEIKDVQI | 1
VLVIQSSEDYVENTEKALNV | 66
EAQLNINQEWNKALGLPKYT | 68
PEAFNYMDKFNEQEINLSLE | 42

====

- target: DRB1*0401 (DR4) (Homo sapiens, UniProt P01903+P01911, A100K/A169T/F76Y/I96L/K127E/L162R/M171V/N62H/P40V/Q125Y/R42H/S133A/S149N/S66Y/V115G/V209L/W38E)
- Type: binding
# reported Relative binding affinity of peptide to HLA-DR molecules, DR4; entries follow
observable: Relative binding affinity of peptide to HLA-DR molecules, DR4

QNSNEVQEVFAKAFAYYIEP | 137
NKALGLPKYTKLITFNVHNR | 10
PESRSILLHGPSKGVELRND | 22
SEGFIHEFGHAVDDYAGYLL | 46
EAQLNINQEWNKALGLPKYT | 43
LLFTNQLKEHPTDFSVEFLE | 6
IGLEIKDVQIIKQSEKEYIRIDAKVVP | 919
YYEIGKILSRDILSKINQPY | 19
KELLNRIQVDSSNPLSEKEK | 0
VENTEKALNVYYEIGKILSR | 81
KIYLYENMNINNLTATLGAD | 0.2
PEAFNYMDKFNEQEINLSLE | 2
SKKFIDIFKEEGSNLTSYGR | 0.2
YVYAKEGYEPVLVIQSSEDY | 555
SDVLEMYKAIGGKIYIVDGD | 305
YLVDGNGRFVFTDITLPNIA | 0.3
HQSIGSTLYNKIYLYENMNI | 55
YGKDALLHEHYVYAKEGYEP | 168
EQYTHQDEIYEQVHSKGLYV | 237
QSDLIKKVTNYLVDGNGRFV | 15
VLVIQSSEDYVENTEKALNV | 29
EYIRIDAKVVPKSKIDTKIQ | 15
AVDDYAGYLLDKNQSDLVTN | 10
QHRDVLQLYAPEAFNYMDKF | 100
LENGKLILQRNIGLEIKDVQI | 7
DTGGLIDSPSINLDVRKQYK | 935
AKAFAYYIEPQHRDVLQLYA | 51
EIMKHIVKIEVKGEEAVKKE | 567
KLITFNVHNRYASNIVESAY | 3

====

- target: DRB1*0701 (DR7) (Homo sapiens, UniProt P01903+P01911, A100R/A102G/A103Q/D57E/D86V/E43K/F76Y/K127E/L162R/M171V/P40G/Q125H/Q99D/R33Q/R42Y/R54Q/S133A/S66F/T210M/V115G/Y107V/Y59L/Y89S)
- Format: binding
Recorded Relative binding affinity of peptide to HLA-DR molecules, DR7 by entry
observable: Relative binding affinity of peptide to HLA-DR molecules, DR7

QHRDVLQLYAPEAFNYMDKF | 83
PESRSILLHGPSKGVELRND | 51
YGKDALLHEHYVYAKEGYEP | 441
KIYLYENMNINNLTATLGAD | 5
IGLEIKDVQIIKQSEKEYIRIDAKVVP | 7
YVYAKEGYEPVLVIQSSEDY | 1182

====

- target: DRB1*0701 (DR7) (Homo sapiens, UniProt P01903+P01911, A100R/A102G/A103Q/D57E/D86V/E43K/F76Y/K127E/L162R/M171V/P40G/Q125H/Q99D/R33Q/R42Y/R54Q/S133A/S66F/T210M/V115G/Y107V/Y59L/Y89S)
- Assay type: binding
observable: Relative binding affinity of peptide to HLA-DR molecules, DR7

YLVDGNGRFVFTDITLPNIA | 19
EYIRIDAKVVPKSKIDTKIQ | 12
KELLNRIQVDSSNPLSEKEK | 36
EQYTHQDEIYEQVHSKGLYV | 0
KLITFNVHNRYASNIVESAY | 72
HQSIGSTLYNKIYLYENMNI | 3
SEGFIHEFGHAVDDYAGYLL | 131
QNSNEVQEVFAKAFAYYIEP | 0.4

====

- target: DRB1*1501 (DR15) (Homo sapiens, UniProt P01903+P01911)
- Format: binding
observable: Relative binding affinity of peptide to HLA-DR molecules, DR15

SEGFIHEFGHAVDDYAGYLL | 0.04
LLFTNQLKEHPTDFSVEFLE | 193
AKAFAYYIEPQHRDVLQLYA | 8
YYEIGKILSRDILSKINQPY | 43
KIYLYENMNINNLTATLGAD | 0.1
QNSNEVQEVFAKAFAYYIEP | 1
AVDDYAGYLLDKNQSDLVTN | 0.1
QSDLIKKVTNYLVDGNGRFV | 0.2

====

- target: DRB1*1301 (DR13) (Homo sapiens, UniProt P01903+P01911, A100E/A169T/K41T/L162R/M171V/P40S/Q125H/Q178H/Q39Y/Q99D/R42S/S66N/T262R/W38E/Y61H)
- Type: binding
- condition set: read-out: IC50 of reference peptide
pIC50: −log10 of the molar value. Where no end group is shown, it is not given here.
observable: pIC50

TERVRLVTRHIYNREE [B1 21-36, reference compound] | 7.43

====

- target: DRB1*1501 (DR15) (Homo sapiens, UniProt P01903+P01911)
- Type: binding
observable: Relative binding affinity of peptide to HLA-DR molecules, DR15

VLVIQSSEDYVENTEKALNV | 958
EIMKHIVKIEVKGEEAVKKE | 329
VENTEKALNVYYEIGKILSR | 0.2
HQSIGSTLYNKIYLYENMNI | 0.02
NKALGLPKYTKLITFNVHNR | 3
EQYTHQDEIYEQVHSKGLYV | 13
SKKFIDIFKEEGSNLTSYGR | 1
PESRSILLHGPSKGVELRND | 17
SDVLEMYKAIGGKIYIVDGD | 2
DTGGLIDSPSINLDVRKQYK | 130
LENGKLILQRNIGLEIKDVQI | 0.04
KLITFNVHNRYASNIVESAY | 5
PEAFNYMDKFNEQEINLSLE | 463
YLVDGNGRFVFTDITLPNIA | 2
IGLEIKDVQIIKQSEKEYIRIDAKVVP | 1
QHRDVLQLYAPEAFNYMDKF | 0.3
YGKDALLHEHYVYAKEGYEP | 4000
EAQLNINQEWNKALGLPKYT | 1
KELLNRIQVDSSNPLSEKEK | 1
EYIRIDAKVVPKSKIDTKIQ | 156

These data points were gathered from patent US20170058005A1.
